// data source = the Immune Epitope Database (IEDB)

# assayed target: HLA-B*57:01
# procedure summary: IEDB peptide-MHC binding, purified MHC/competitive/fluorescence; filed as Kd, often an IC50 or EC50 that approximates it; bounds were set here for any values at or beyond the usual limits of such assays
# test conditions: source organism: Variola virus
readout type: pKd
The value called pKd is obtained by taking minus log10 of the concentration in mol/L.

GET /values?readout=pKd&item= `SSDDIPPRW` 5.83

---

# assayed target: HLA-A*26:01
# procedure summary: IEDB peptide-MHC binding, purified MHC/competitive/fluorescence; filed as Kd, often an IC50 or EC50 that approximates it; bounds were set here for any values at or beyond the usual limits of such assays
# test conditions: source organism: Fowlpox virus
pKd: −log10 of the molar value.
readout type: pKd

GET /values?readout=pKd&system=HLA-A*26:01&item= `VIMWYNYLF` ≤ 4.70

---

# assayed target: HLA-B*39:01
# procedure summary: IEDB peptide-MHC binding, purified MHC/direct/fluorescence; filed as Kd, often an IC50 or EC50 that approximates it; bounds were set here for any values at or beyond the usual limits of such assays
# test conditions: source organism: Vibrio vulnificus YJ016
readout type: Kd (nM)
// note: answer is a bare numeric in nM

GET /values?readout=Kd&item= `IVAQGIAAL` 220

---

# assayed target: HLA-A*02:01
# procedure summary: IEDB peptide-MHC binding, purified MHC/direct/fluorescence; filed as Kd, often an IC50 or EC50 that approximates it; bounds were set here for any values at or beyond the usual limits of such assays
# test conditions: source organism: Campylobacter jejuni RM1221
readout type: Kd

GET /values?readout=Kd&item= `KSNEKNMDF` ≥ 20 µM

---

# assayed target: HLA-B*73:01
# procedure summary: IEDB peptide-MHC binding, purified MHC/direct/fluorescence; filed as Kd, often an IC50 or EC50 that approximates it; bounds were set here for any values at or beyond the usual limits of such assays
# test conditions: source organism: Giardia lamblia ATCC 50803
readout type: pKd
The value called pKd is obtained by taking minus log10 of the concentration in mol/L.

GET /values?readout=pKd&item= `IRNLVKRYK` 5.46

---

# assayed target: HLA-A*02:01
# procedure summary: IEDB peptide-MHC binding, purified MHC/competitive/fluorescence; filed as Kd, often an IC50 or EC50 that approximates it; bounds were set here for any values at or beyond the usual limits of such assays
# test conditions: source organism: Camelpox virus CMS
readout type: Kd (nM)
// note: answer is a bare numeric in nM

GET /values?readout=Kd&system=HLA-A*02:01&item= `WVIDTLNGI` 7.4

---

# assayed target: HLA-B*15:42
# procedure summary: IEDB peptide-MHC binding, purified MHC/competitive/fluorescence; filed as Kd, often an IC50 or EC50 that approximates it; bounds were set here for any values at or beyond the usual limits of such assays
# test conditions: source organism: human gammaherpesvirus 4
readout type: Kd

GET /values?readout=Kd&item= `RRYASQTEL` ≥ 5 µM

---

# assayed target: HLA-A*68:02
# procedure summary: IEDB peptide-MHC binding, purified MHC/direct/fluorescence; filed as Kd, often an IC50 or EC50 that approximates it; bounds were set here for any values at or beyond the usual limits of such assays
# test conditions: source organism: Lechiguanas virus
readout type: Kd

GET /values?readout=Kd&item= `ETESATLFT` ≥ 20 µM
